studyTarget: Carbonic anhydrase 1 (Homo sapiens)
Sequence (P00915 whole entry): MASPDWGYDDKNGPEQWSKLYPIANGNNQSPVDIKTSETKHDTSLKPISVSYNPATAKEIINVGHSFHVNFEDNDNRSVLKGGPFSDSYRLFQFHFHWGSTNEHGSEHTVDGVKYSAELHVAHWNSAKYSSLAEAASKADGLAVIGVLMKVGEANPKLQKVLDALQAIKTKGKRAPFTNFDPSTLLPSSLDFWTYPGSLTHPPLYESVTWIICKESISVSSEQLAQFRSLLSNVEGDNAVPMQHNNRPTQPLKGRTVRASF
procedureText: Inhibition of human recombinant carbonic anhydrase 1-catalyzed CO2 hydration by stopped flow assay
Below, each entry is listed alongside its reported pKi.
Note on pKi: it is the negative log10 of concentration, concentration in mol/L.

[
  {
    "compound": "CCN(CC)C(=S)S [DITIOCARB SODIUM]",
    "recordedNumber": 6.10
  },
  {
    "compound": "N#C[SeH] [SODIUM SELENOCYANATE]",
    "recordedNumber": 4.07
  },
  {
    "compound": "O=S(=O)(O)OS(=O)(=O)O [SODIUM PYROSULFATE]",
    "recordedNumber": 3.00
  }
]

Request: For the compound shown here, O=P(O)(O)OP(=O)(O)O [SODIUM PYROPHOSPHATE] , give the reported pKi.
Result: 1.59
